Answer each item with its documented IC50.
# Tested on: Plasmodium falciparum
# METHOD SUMMARY: Antimalarial activity against multidrug-resistant Plasmodium falciparum K1 infected in human erythrocytes after 48 hrs by [3H]hypoxanthine incorporation assay
# Assay type: functional, organism-based
# CONDITION SET: Plasmodium falciparum, K1; read-out: IC50
One number for each entry, in µM.

{"INPUT SMILES": "COc1ccc(CCNS(=O)(=O)c2ccc(NC3=C(Cl)C(=O)c4ccccc4C3=O)cc2)cc1OC", "MEASURED ENDPOINT": "IC50", "ENDPOINT UNIT": "µM", "ENDPOINT VALUE": 9.96}
{"INPUT SMILES": "O=C1C(Cl)=C(Nc2cccc(S(=O)(=O)N3CCc4ccccc4C3)c2)C(=O)c2ccccc21", "MEASURED ENDPOINT": "IC50", "ENDPOINT UNIT": "µM", "ENDPOINT VALUE": 7.27}
{"INPUT SMILES": "COc1cc2c(cc1OC)CN(S(=O)(=O)c1cccc(NC3=C(Cl)C(=O)c4ccccc4C3=O)c1)CC2", "MEASURED ENDPOINT": "IC50", "ENDPOINT UNIT": "µM", "ENDPOINT VALUE": 8.79}

Okay, next one:
COc1ccc(CCNS(=O)(=O)c2cccc(NC3=C(Cl)C(=O)c4ccccc4C3=O)c2)cc1OC yielded IC50 of 10.1
